molecular target: Neu5Ac(b2-6)Gal(b1-4)GlcNAc; test: glycan array binding signal (z-score within array); higher = stronger binding; conditions: glycan notation: IUPAC condensed, linker removed
Many of the other results were omitted from the sample, so the strongest signals are more common in it than they were.
Could you please report measured glycan array binding signal (z-score) for the items listed next?

binder	glycan array binding signal (z-score)
FBG3 (Homo sapiens), Q9H4M3 (protein) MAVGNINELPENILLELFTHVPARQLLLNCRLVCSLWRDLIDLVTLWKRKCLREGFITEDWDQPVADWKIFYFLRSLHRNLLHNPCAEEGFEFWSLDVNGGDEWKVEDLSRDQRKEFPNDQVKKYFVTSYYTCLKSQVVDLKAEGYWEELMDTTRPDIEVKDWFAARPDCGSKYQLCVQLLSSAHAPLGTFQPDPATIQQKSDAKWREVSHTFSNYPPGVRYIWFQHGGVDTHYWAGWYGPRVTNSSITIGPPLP	-0.75

Here's the next entry for you.
So what does the record say about glycan array binding signal (z-score) for MGL6A (Homo sapiens) (protein) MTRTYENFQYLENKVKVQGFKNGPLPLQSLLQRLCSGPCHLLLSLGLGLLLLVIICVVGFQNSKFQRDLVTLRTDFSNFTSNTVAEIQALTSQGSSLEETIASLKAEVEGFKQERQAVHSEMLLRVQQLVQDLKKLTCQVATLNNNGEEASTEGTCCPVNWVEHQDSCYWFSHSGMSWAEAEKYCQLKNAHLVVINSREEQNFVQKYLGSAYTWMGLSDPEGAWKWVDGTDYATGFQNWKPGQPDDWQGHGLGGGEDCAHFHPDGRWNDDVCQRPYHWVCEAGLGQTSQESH ? -0.277
